Please provide measured growth inhibition for the entries that follow.
assay details: NCI Yeast Anticancer Drug Screen. Data for the sgs1 mgt1 strain (AID 161);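 note: 0% = growth of cultures given vehicle only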
experimental conditions: S. cerevisiae sgs1 mgt1 strain, at 50.0 µM, hits give high values
This is part of a sample that, as a whole, favours compounds with a hit. Of some 79,000 tested, about 15% had one in any assay.
Please respond with the number in % and leave the unit unwritten.

q: So what's the measured growth inhibition for this one? Cc1cc2c(c3oc(C4(C)OC4C4OC4C)cc(=O)c13)C(=O)c1c(O)c(C3CC(C)(N(C)C)C(O)C(C)O3)cc(C3CC(N(C)C)C(O)C(C)O3)c1C2=O (centres undefined)
a: 90.7

q: So what's the measured growth inhibition for this one? CCOC(=O)C(CCCCC(CN(CC)CC)(C(=O)OCC)c1ccccc1)(CN(CC)CC)c1ccccc1 (centres undefined)
a: 11.7

q: So what's the measured growth inhibition for this one? Cc1ccc(S(=O)(=O)N(C)C(C(=O)O)c2ccccc2)cc1 (centres undefined)
a: 7.15

q: So what's the measured growth inhibition for this one? COc1cc(OC)c(NC(=O)/C=C/c2ccccc2)cc1Cl
a: 7.85

q: So what's the measured growth inhibition for this one? O=C(N/N=C\c1ccc([N+](=O)[O-])cc1)Nc1cccc2ccccc12
a: -42.4

q: So what's the measured growth inhibition for this one? O=C(Nc1cccnc1)c1ccc([N+](=O)[O-])s1
a: 29.3

q: So what's the measured growth inhibition for this one? Cc1cccc(Oc2ccc(C(F)(F)F)cc2[N+](=O)[O-])c1C
a: 2.55

q: So what's the measured growth inhibition for this one? CC(=O)c1c[nH]c(=O)c2cc3c(cc12)OCO3
a: -7.85

q: So what's the measured growth inhibition for this one? COc1cc([C@@H]2c3cc4c(cc3[C@@H](Nc3ccc(NC(=O)c5cc(NC(=O)c6cc([N+](=O)[O-])cn6C)cn5C)cc3)[C@H]3COC(=O)[C@H]23)OCO4)cc(OC)c1O
a: 34

----------
assay details: NCI Yeast Anticancer Drug Screen. Data for the bub3 strain (AID 167)
experimental conditions: S. cerevisiae bub3 mutant strain, at 50.0 µM, hits give high values
Compounds without any hit were thinned out: in the full panel of roughly 79,000, 15% have a hit.
result type: growth inhibition (%)
Please respond with the number in % and leave the unit unwritten.

q: So what's the measured growth inhibition for this one? CCCC(C)C(=O)OC(C)CC(C)C (stereo unspecified)
a: 20.9

q: So what's the measured growth inhibition for this one? CCNC(=O)C(C(=O)O)c1ccccc1 (stereo unspecified)
a: -13.9

q: So what's the measured growth inhibition for this one? CC(C)=CCCC(=O)C(c1nc2n(c1O)C(=N)N=N2)c1nc2n(c1O)C(=N)N=N2 (stereo unspecified)
a: 5.55

q: So what's the measured growth inhibition for this one? CCOC(=O)c1[nH]c(Cc2[nH]c(C(=O)OCC)c(CC)c2C)c(C)c1CC
a: -4.7

q: So what's the measured growth inhibition for this one? O=C(NC(O)C(=O)O)c1ccc(Cl)cc1 (stereo unspecified)
a: -6.4

q: So what's the measured growth inhibition for this one? CCCCC(=O)N[C@H]1C[C@H]2CC[C@@]1(C)C2(C)C
a: 10.9

----------
assay details: NCI Yeast Anticancer Drug Screen. Data for the sgs1 mgt1 strain (AID 161);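 note: 0% = growth of cultures given vehicle only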
experimental conditions: S. cerevisiae sgs1 mgt1 strain, at 50.0 µM, hits give high values
The panel holds about 79,000 compounds, 15% with a hit somewhere; the sample as a whole holds those more often. Active and inactive are the calls of the source. Cut-off read from the data, not from the text of the source: active = growth inhibition above about 70%; inactive = the rest.
Please provide measured growth inhibition for the entries that follow.

q: So what's the measured growth inhibition for this one? CCCCC(CCc1ccccc1)C(=O)NCC (configuration not stated)
a: -18.4% (inactive)

q: So what's the measured growth inhibition for this one? Clc1nnc(Cl)c2ncccc12
a: -3.6% (inactive)

q: So what's the measured growth inhibition for this one? CCOc1ccc(NC(=O)C2=C(C)NC(C)=C(C(=O)Nc3ccc(OCC)cc3)C2c2ccc(O)c(OC)c2)cc1
a: -14.8% (inactive)

q: So what's the measured growth inhibition for this one? COC(=O)C(=O)CC(=O)CCn1ncc(Cl)c(Cl)c1=O
a: -1.3% (inactive)

q: So what's the measured growth inhibition for this one? CCOC(=O)CON
a: -7.45% (inactive)

q: So what's the measured growth inhibition for this one? Cc1c([N+](=O)[O-])cc2c(c1[N+](=O)[O-])C(C(C)C)CCC2(C)C (configuration not stated)
a: 9.65% (inactive)

q: So what's the measured growth inhibition for this one? C#CC(C)(O)CCCCCCC (configuration not stated)
a: 4% (inactive)

q: So what's the measured growth inhibition for this one? CCOC(=O)/C(O)=C(/C=N\C(=S)Nc1ccccc1Cl)C(=O)OCC
a: -28.4% (inactive)

q: So what's the measured growth inhibition for this one? COC(=O)/C=C(\S/C=C(/c1ccccc1)N1CCn2c(C(=O)c3ccccc3)c(C(=O)OC)c(C(=O)OC)c21)C(=O)OC
a: 43.8% (inactive)

q: So what's the measured growth inhibition for this one? CCOC(=O)NC(CCl)NC(=O)OCC
a: -2.05% (inactive)

q: So what's the measured growth inhibition for this one? CC(C)CCCC(C)C1CCC2C(CC(=O)O)C(C3(C)CCC(O)CC3=O)CCC2(C)C1 (configuration not stated)
a: 25.9% (inactive)

q: So what's the measured growth inhibition for this one? CC(C)OC/N=C(/N)NC#N
a: -29.4% (inactive)
